PROTOCOL_NOTES: P-glycoprotein substrates identified in KB-8-5-11 adenocarcinoma cell line, qHTS therapeutic library screen (AID 1346987); also: nearly all actives have a fitted effect of over 65% in size; also: potency is read from the fitted curve at half-maximal effect
CONDITIONS_USED: KB-8-5-11 (P-gp overexpressing) viability, CellTiter-Glo, 72 h; series mostly up to 44.5 µM
Records with an inconclusive call do not appear. Active and inactive are the calls of the source. Calls follow the shape of the dose curve; as a rule, active = well fitted inhibition curve with a large enough effect; inconclusive = small, poorly fitted or top-dose-only effect; inactive = flat fitted curve, though single readings scatter.
QUANTITY_KIND: Potency

For orientation, consider the following solved cases.
* O=C(O)c1ccc(O)c2ncc(N3CCOCC3)cc12 | inactive
* CN(C)CCOc1cc(-c2cn[nH]c2)ccc1NC(=O)C1COc2ccccc2O1 (stereo unspecified) | inactive
* O=C(O)c1nc(=O)[nH]c(=O)[nH]1 | inactive
* Cc1ccccc1C(=O)c1ccc(Nc2ccc(Br)cc2N)cc1Cl | 20.6 µM (active)
* COc1cc2c(cc1OC)CC(=O)N(CCCN(C)C[C@H]1Cc3cc(OC)c(OC)cc31)CC2 | inactive
* O[C@@H](COc1cccc2ncccc12)CN1CCN(C2c3ccccc3[C@@H]3[C@H](c4ccccc42)C3(F)F)CC1 (stereo partly specified) | inactive
* N#CC(c1ccnc(NCCc2cccnc2)n1)c1nc2ccccc2s1 (stereo unspecified) | inactive
* N#CC(c1ccc(Cl)cc1)c1c(Cl)cc(-n2ncc(=O)[nH]c2=O)cc1Cl (stereo unspecified) | inactive
* C[C@@H](O[C@H]1OCCN(Cc2n[nH]c(=O)[nH]2)[C@@H]1c1ccc(F)cc1)c1cc(C(F)(F)F)cc(C(F)(F)F)c1 | 20.9 µM (active)
* CC1(C)[C@H]2CC[C@]3(C)[C@@H](C(=O)C=C4[C@@H]5C[C@@](C)(C(=O)O)CC[C@]5(C)CC[C@]43C)[C@@]2(C)CC[C@@H]1O | inactive

Query string: Name the recorded Potency for `O=c1[nH]c(=O)n([C@H]2C[C@@H](O)[C@@H](CO)O2)cc1I` .
Result string: inactive

* * *

PROTOCOL_NOTES: Quantitative High-Throughput drug screen in 47 multiple myeloma cell lines against the NCATS MIPE library collection: OCIMY5_PLB cell viability assay (AID 1918988); also: nearly all actives have a fitted effect of over 65% in size
CONDITIONS_USED: OCI-MY5 myeloma viability, ATP luminescence, 48 h; series mostly up to 45.8 µM
Results filed as inconclusive are left out. Calls of active or inactive are those of the source. The call rests on the fitted dose curve; in most records, active means well fitted cell-killing curve with a large enough effect; inconclusive means small, poorly fitted or top-dose-only effect, or effect the other way; inactive means no such curve, though single readings can be large or run the other way.
Please answer using one outcome listed in t (active), f (inactive)

* Nc1ncnc2c1ncn2[C@@H]1O[C@H](CO)[C@@H](O)[C@@H]1O | t
* COC1CCC(C(=O)c2ccc3nc4c(cc3c2)CCCO4)CC1 (stereo not drawn) | t
* O=c1[nH]c(=O)n([C@H]2C[C@@H](O)[C@@H](CO)O2)cc1C(F)(F)F | t
* CO[C@@H]1C(N(C)C(=O)c2ccccc2)C[C@H]2O[C@]1(C)n1c3ccccc3c3c4c(c5c6ccccc6n2c5c31)C(=O)NC4=O (stereo partly drawn) | t

Let's switch to this molecule now.
Query string: // return assay outcome for `CC[C@H](C)C(=O)O[C@H]1C[C@H](O)C=C2C=C[C@H](C)[C@H](CC[C@@H](O)C[C@@H](O)CC(=O)O)[C@H]21`
Result string: f

* * *

PROTOCOL_NOTES: Quantitative High-Throughput drug screen in 47 multiple myeloma cell lines against the NCATS MIPE library collection: L363_DSMZ cell viability assay (AID 1918984); also: nearly all actives have a fitted effect of over 40% in size; also: potency is read from the fitted curve at half-maximal effect
CONDITIONS_USED: L363 myeloma viability, CellTiter-Glo ATP luminescence, 48 h
Results filed as inconclusive are left out. Calls of active or inactive are those of the source. Calls come from the whole dose curve; as a rule, active = well fitted cell-killing curve with a large enough effect; inconclusive = small, poorly fitted or top-dose-only effect, or effect the other way; inactive = no such curve, though single readings can be large or run the other way.
QUANTITY_KIND: Potency

For orientation, consider the following solved cases.
• CCC(=O)OCC(=O)[C@@]1(OC(=O)CC)[C@@H](C)C[C@@H]2[C@H]3CCC4=CC(=O)C=C[C@]4(C)[C@@]3(F)[C@@H](O)C[C@@]21C = 1.05 µM (active)
• OC[C@H]1O[C@@H](O[C@H]2[C@@H](O)[C@@](O)(CO)O[C@@H]2CO)[C@H](O)[C@@H](O)[C@@H]1O = inactive
• CN1C(=O)C(Cc2c[nH]c3ccccc23)NC1=S (centres undefined) = inactive
• O=C(O)CCC=CCC[C@@H]1[C@H](N2CCCCC2)[C@@H](O)C[C@@H]1OCc1ccc(-c2ccccc2)cc1 = inactive
• CC1=C(CC(=O)O)c2cc(F)ccc2C1=Cc1ccc(S(C)=O)cc1 (centres undefined) = 13.2 µM (active)

Query string: Name the recorded Potency for CCCCC(C=O)NC(=O)C(CC(C)C)NC(=O)OCc1ccccc1 (centres undefined) .
Result string: inactive

Query string: Name the recorded Potency for `CNC(=O)c1cc(Oc2ccc(NC(=O)Nc3ccc(Cl)c(C(F)(F)F)c3)c(F)c2)ccn1` .
Result string: 6.62 µM (active)

Query string: Name the recorded Potency for `CC=C(C(=CC)c1ccc(O)cc1)c1ccc(O)cc1` .
Result string: 13.2 µM (active)

Query string: Name the recorded Potency for `CC[C@H](C)n1cc(C)c2c(C(=O)NCc3c(C)cc(C)[nH]c3=O)cc(-c3ccc(N4CCNCC4)nc3)cc21` .
Result string: inactive

* * *

PROTOCOL_NOTES: NS1 protein of Zika virus - qHTS assay to identify small molecule inhibitors in human HEK 293 cells (AID 1347053); also: nearly all actives have a fitted effect of over 55% in size; also: potency is read from the fitted curve at half-maximal effect
CONDITIONS_USED: HEK293 ZIKV MR766 infection, NS1 TR-FRET, 24 h; series mostly up to 46.1 µM
Inconclusive results are not listed. Active and inactive are the calls of the source. Calls come from the whole dose curve; as a rule, active = well fitted inhibition curve with a large enough effect; inconclusive = small, poorly fitted or top-dose-only effect; inactive = no such curve, though single readings can be large or run the other way.
QUANTITY_KIND: Potency

- CCCCC(F)(F)[C@@]1(O)CC[C@H]2[C@H](CC(=O)[C@@H]2CCCCCCC(=O)O)O1: inactive
- Cc1ccc(C(=O)N(CCCN)[C@@H](c2oc3cc(Cl)ccc3c(=O)c2Cc2ccccc2)C(C)C)cc1: 10.5 µM (active)
- Cc1cnc(CNC(=O)c2c(=O)c3ccc(N4CCCN(C)CC4)nc3n3c2sc2ccccc23)cn1: inactive
- C=CCc1cccc(C=NNC(=O)CN2CCN(Cc3ccccc3)CC2)c1O: 13.2 µM (active)
- CCNC(=O)Nc1ccc(Oc2ncnc(N)c2C=NOC)cc1Cl: inactive

Query string: Name the recorded Potency for `CN(C)CCCNC(=O)c1ccc(-c2cc(O)c3ncccc3c2)cc1` .
Result string: inactive

Query string: Name the recorded Potency for `O=C(CC12CC3CC(CC(C3)C1)C2)Nc1cccc2nc(NCCNCCO)ccc12` .
Result string: inactive

Query string: Name the recorded Potency for `O=C(c1ccc(C(=O)N2CCC(N3CCCC3)CC2)c(Nc2ccccc2)c1)N1CCC(N2CCCC2)CC1` .
Result string: inactive

Query string: Name the recorded Potency for `CC[C@H]1OC(=O)[C@H](C)[C@@H](O[C@H]2C[C@@](C)(OC)[C@@H](O)[C@H](C)O2)[C@H](C)[C@@H](O[C@@H]2O[C@H](C)C[C@H](N(C)C)[C@H]2O)[C@](C)(O)C[C@H](C)C(=NOCOCCOC)[C@H](C)[C@@H](O)[C@]1(C)O` .
Result string: inactive

Query string: Name the recorded Potency for `CNC(=O)[C@H](CC1=CN=C2C=CCC=C12)NC(=O)[C@@H](CC(=O)NO)CC(C)C` .
Result string: inactive

Query string: Name the recorded Potency for `C[C@@H]1[C@H](O)[C@@H](C)C=CC=CC=CC=CC=CC=CC=C[C@H](O[C@@H]2O[C@H](C)[C@H](O)[C@H](N)[C@@H]2O)C[C@@H]2O[C@](O)(C[C@@H](O)C[C@@H](O)[C@H](O)CC[C@@H](O)C[C@@H](O)CC(=O)O[C@H]1C)C[C@H](O)[C@@H]2C(=O)O` .
Result string: inactive

Query string: Name the recorded Potency for `CN(C)CCN(C)C(=O)c1ccc(NC(=O)Nc2ccc(-c3nc(N4CCOCC4)c4ccn(CC(F)(F)F)c4n3)cc2)cc1` .
Result string: 3.32 µM (active)

Query string: Name the recorded Potency for `CNC(=O)c1c(-c2ccc(F)cc2)oc2cc(N(CCO)S(C)(=O)=O)c(C3CC3)cc12` .
Result string: inactive

Query string: Name the recorded Potency for CCOC(=O)[C@H](CCc1ccccc1)N[C@@H](C)C(=O)N1CCCC1C(=O)O (stereo partly specified) .
Result string: inactive

Query string: Name the recorded Potency for `Cc1ccc(NC(=O)c2cccc(N(C)C)c2)cc1NC(=O)c1ccc(O)cc1` .
Result string: inactive

Query string: Name the recorded Potency for `NC(N)=Nc1nc(CSCCC(N)=NS(N)(=O)=O)cs1` .
Result string: inactive

* * *

PROTOCOL_NOTES: qHTS Assay for Identifying Gametocytocidal Compounds (AID 743244); also: potency is read from the fitted curve at half-maximal effect
CONDITIONS_USED: P. falciparum 3D7 stage III-V gametocytes, alamarBlue, 72 h
Records with an inconclusive call do not appear. Calls of active or inactive are those of the source. The call rests on the fitted dose curve; in most records, active means well fitted curve in the direction sought with a large enough effect; inconclusive means small, poorly fitted or top-dose-only effect, or another doubt; inactive means no such curve, though single readings can be large or run the other way.
Collected Potency values appear next to each entry.

For orientation, consider the following solved cases.
* COc1c(C)cnc(Cn2cnc3c(Cl)nc(N)nc32)c1C | 23.5 µM (active)
* CCC(=O)N1CCN(c2ccc(-n3c(=O)ccc4cnc5ccc(-c6cnc7ccccc7c6)cc5c43)cc2C(F)(F)F)CC1 | 5.26 µM (active)
* Cc1cccc(Nc2nc(N[C@@H]3CCCC[C@H]3N)ncc2C(N)=O)c1 | 9.35 µM (active)
* CC(C)Oc1cc(Nc2nc(N[C@@H](C)c3ccc(F)cn3)ncc2Cl)[nH]n1 | 2.35 µM (active)
* CCNC(=O)c1noc(-c2cc(C(C)C)c(O)cc2O)c1-c1ccc(CN2CCOCC2)cc1 | 0.0469 µM (active)

Query string: Name the recorded Potency for `Cc1ccc(C(=O)N(CCCN)[C@@H](c2nc3cc(Cl)ccc3c(=O)n2Cc2ccccc2)C(C)C)cc1` .
Result string: 18.7 µM (active)

Query string: Name the recorded Potency for `CN(C)CCN(C)C(=O)c1ccc(NC(=O)Nc2ccc(-c3nc(N4CCOCC4)c4ccn(CC(F)(F)F)c4n3)cc2)cc1` .
Result string: 23.5 µM (active)

Every entry's value here was drawn from PubChem BioAssay (NCATS).
